- tgt: HLA-A*02:01 (Homo sapiens, UniProt P04439, D140Y/D185E/D98H/E176V/E277Q/G131W/G231S/I119V/I121R/I166T/I218V/L300P/L318F/N151K/N90K/P208A/P217A/Q86G/Q94H/R138H/R169H/T345S)
- Construct: made in house
- test_summary: MHC binding assay: UV-ligand exchange with β2m ELISA (peptide exchange yield)
- setup_conditions: binding to HLA-A*02:01 evaluated by peptide exchange yield (UV-ligand exchange, β2m ELISA)

{"substance": "128 (SILTNISEV; listed as Homo sapiens) [compound 128]", "Peptide exchange": "++ (≧20% = ++)"}
{"substance": "211 (LLTTVLINA; listed as Homo sapiens) [compound 211]", "Peptide exchange": "+++ (≧50 = +++)"}
{"substance": "102 (GLYPVTLVGV; listed as Homo sapiens) [compound 102]", "Peptide exchange": "+++ (≧50 = +++)"}
{"substance": "31 (GLLETTGLLAT; listed as Homo sapiens) [compound 31]", "Peptide exchange": "+++ (≧50 = +++)"}
{"substance": "132 (ALLNNVIEV; listed as Homo sapiens) [compound 132]", "Peptide exchange": "+++ (≧50 = +++)"}
{"substance": "157 (ILQDGQFLV; listed as Homo sapiens) [compound 157]", "Peptide exchange": "++ (≧20% = ++)"}
{"substance": "167 (LVVDEGSLVSV; listed as Homo sapiens) [compound 167]", "Peptide exchange": "+++ (≧50 = +++)"}
{"substance": "85 (KLLDKPEQFL; listed as Homo sapiens) [compound 85]", "Peptide exchange": "++ (≧20% = ++)"}
{"substance": "119 (SLIEESEEL; listed as Homo sapiens) [compound 119]", "Peptide exchange": "++ (≧20% = ++)"}
